Values were extracted from the supplement of paper PMC12669032.

Tested on: Bacteroides caccae
Test: growth AUC relative to DMSO control (median of replicates) (fraction); higher = more growth (less inhibition), active = hit call of the paper
Details: 20 µM; 24 h
Tag: Fulfilled if measured growth AUC is not below 1, Not fulfilled if it is.

{"columns": ["COMPOUND", "MEASURED ON", "LABEL VALUE"],
 "data": [
  ["CCOC(=O)NCCOc1ccc(Oc2ccccc2)cc1", "Bacteroides caccae", "Not fulfilled"],
  ["CN(C)C(N)=O", "Bacteroides caccae", "Not fulfilled"],
  ["COC(=O)C(C)Oc1ccc(Oc2ncc(C(F)(F)F)cc2Cl)cc1 (stereo not given)", "Bacteroides caccae", "Not fulfilled"],
  ["Cc1cc(C)cc(O)c1", "Bacteroides caccae", "Fulfilled"],
  ["FC(F)(F)/N=C1\\SC(=Nc2ccccc2)N(c2ccccc2)\\C1=N\\C(F)(F)F", "Bacteroides caccae", "Not fulfilled"]
]}

Turning to the following compound.
Record CCC/C(=N\OCC)C1=C(O)CC(C2CCCSC2)CC1=O (stereo not given) ; criterion: growth AUC no lower than 1. Met? Not fulfilled

* * *

Tested on: Akkermansia muciniphila
Assay: growth AUC relative to DMSO control (median of replicates) (fraction); higher = more growth (less inhibition), active = hit call of the paper
Details: 20 µM; 24 h
Tag: True if measured growth AUC is not below 1, False if it is.

Study these solved cases before continuing.
{"columns": ["MOLECULE", "MEASURED ON", "LABEL VALUE"],
 "data": [
  ["CCCOC(=O)c1ccc(C(=O)OCCC)nc1", "Akkermansia muciniphila", "True"],
  ["CCCOc1nc2ccc(I)cc2c(=O)n1CCC", "Akkermansia muciniphila", "False"],
  ["CCc1cccc(C)c1N(COC(C)C)C(=O)CCl", "Akkermansia muciniphila", "True"],
  ["CC(C)CCCCCOC(=O)C(C)Oc1ccc(Cl)cc1Cl (centres undefined)", "Akkermansia muciniphila", "True"]
]}

Record O=[N+](Nc1ccccc1)c1ccccc1 ; criterion: growth AUC no lower than 1. Met? False

Can you handle Oc1ccccc1O next? False

Can you handle O=S(=O)(Oc1ccc(Cl)cc1Cl)c1ccccc1 next? False

Can you handle O=C(NCc1ncc(C(F)(F)F)cc1Cl)c1c(Cl)cccc1Cl next? False

Can you handle O=C=NC1CCC(CC2CCC(N=C=O)CC2)CC1 (centres undefined) next? True

Can you handle CNc1nc(NC(C)C)nc(SC)n1 next? False

* * *

Tested on: Lactobacillus gasseri
Assay: growth AUC relative to DMSO control (median of replicates) (fraction); higher = more growth (less inhibition), active = hit call of the paper
Conditions: 20 µM; 24 h
Definition: the class of an entry is the range in bucket A: < 0.9; bucket B: ≥ 0.9 and < 1; bucket C: ≥ 1 that contains its growth AUC.

Study these solved cases before continuing.
{"columns": ["COMPOUND", "LABEL VALUE"],
 "data": [
  ["O=C(NC(=O)c1c(F)cccc1F)Nc1cc(C(F)(F)F)cc(C(F)(F)F)c1Cl", "bucket C"],
  ["Cc1cccc(C)c1N(CCSCC(O)C(=O)[O-])C(=O)CO.[Na+] (stereo not drawn)", "bucket A"]
]}

Quick check: band for CCOC(=O)C(C)N(C(=O)c1ccccc1)c1ccc(Cl)c(Cl)c1 (stereo not drawn) bucket B

Can you handle O=S(=O)(Cc1ccc(Cl)cc1)c1ccc(Cl)cc1 next? bucket C

Can you handle CC(C)OC(=O)c1cc(C(=O)OC(C)C)cc([N+](=O)[O-])c1 next? bucket B

Can you handle CCCCCCCCCC[N+](C)(C)Cc1ccccc1.[Cl-] next? bucket A

Can you handle Nc1ccc(O)cc1 next? bucket C

Can you handle Br[C@@H]1CC[C@@H](Br)[C@@H](Br)CC[C@@H](Br)[C@@H](Br)CC[C@H]1Br next? bucket B

Can you handle Clc1ccc(C(c2ccccc2Cl)C(Cl)Cl)cc1 (stereo not drawn) next? bucket A

Can you handle CC1(C)C(C(=O)OC(C#N)c2cccc(Oc3ccccc3)c2)C1C(Br)C(Br)(Br)Br (stereo not drawn) next? bucket C
